The reported measurements were obtained from the supplement of paper PMC10065799.

TESTED SYSTEM: FGFR1 (UniProt P11362)
Sequence (P11362 whole entry, looked up): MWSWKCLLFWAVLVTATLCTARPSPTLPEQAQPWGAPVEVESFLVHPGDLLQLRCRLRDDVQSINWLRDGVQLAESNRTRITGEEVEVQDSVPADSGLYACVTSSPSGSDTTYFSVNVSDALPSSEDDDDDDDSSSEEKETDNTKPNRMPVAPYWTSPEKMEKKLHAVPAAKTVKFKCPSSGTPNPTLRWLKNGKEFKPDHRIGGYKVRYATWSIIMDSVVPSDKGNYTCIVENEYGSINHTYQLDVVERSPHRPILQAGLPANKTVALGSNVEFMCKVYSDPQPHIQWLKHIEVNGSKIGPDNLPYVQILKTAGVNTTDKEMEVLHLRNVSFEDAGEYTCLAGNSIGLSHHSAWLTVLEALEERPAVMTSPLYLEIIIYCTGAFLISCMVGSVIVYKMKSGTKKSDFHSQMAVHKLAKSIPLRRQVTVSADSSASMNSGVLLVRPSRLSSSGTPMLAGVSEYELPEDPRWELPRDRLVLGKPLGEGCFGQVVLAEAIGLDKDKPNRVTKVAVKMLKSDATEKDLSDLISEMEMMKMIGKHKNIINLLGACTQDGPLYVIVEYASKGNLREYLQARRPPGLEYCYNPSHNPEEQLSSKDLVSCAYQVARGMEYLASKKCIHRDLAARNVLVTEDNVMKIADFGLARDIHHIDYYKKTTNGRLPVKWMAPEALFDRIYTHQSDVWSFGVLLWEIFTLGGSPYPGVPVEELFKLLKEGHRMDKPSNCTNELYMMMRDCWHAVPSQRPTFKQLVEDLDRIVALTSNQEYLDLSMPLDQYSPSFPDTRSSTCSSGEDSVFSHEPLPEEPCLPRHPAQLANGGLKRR
EXPERIMENTAL PROTOCOL: phosphorylation enrichment, bacterial display (enrichment ratio); higher = better substrate or ligand; peptides without Tyr show the background
Mark f for phosphorylation enrichment values under 0.6, and t for everything at or above.

Data request: API: above_or_equal(metric=phosphorylation enrichment, cutoff=0.6) for item ESSKAYERDLS [TTC37_Y1074_A1077D]
Data returned: f

Data request: Record CVAARYMDVKG [WFIKKN2_Y93] ; criterion: phosphorylation enrichment no lower than 0.6. Met?
Data returned: f

Data request: Tell me whether phosphorylation enrichment is at least 0.6 here: CTTIHQNYMCN [TP53_Y234_Y234Q]
Data returned: f

Data request: hey, is phosphorylation enrichment for this one >= 0.6? GHRPVYSEDEQ [CHST6_Y362_Y358H]
Data returned: f

Data request: Does LIGRGYDDPEV [HSPA9_Y128_R127G] have a reported phosphorylation enrichment of at least 0.6?
Data returned: t

Data request: Does the reported phosphorylation enrichment for PVQAAYQNVVA [HBB_Y131_K133N] fall at or above the 0.6 mark?
Data returned: t

Data request: Evaluate PLRANYLIARV [HLCS_Y635_D634N] : phosphorylation enrichment at minimum 0.6?
Data returned: t

Data request: Given LRLFSYSTTIR [CYP7B1_Y365_S363F] , state whether its phosphorylation enrichment is at least 0.6.
Data returned: f

Data request: Determine whether measured phosphorylation enrichment meets or exceeds 0.6 for SLQSEYVHFGG [CDC14A_Y591_YF]
Data returned: t

Data request: In plain terms: is recorded phosphorylation enrichment at least 0.6 for KLQKKYGPIYS [CYP17A1_Y60] ?
Data returned: f

Data request: Quick check: does QNTGVYFDLFG [PTPN11_Y62_D61V_YF] have phosphorylation enrichment greater than or equal to 0.6?
Data returned: t

Data request: Hi, just wondering whether LYNQDYPIHSV [GATM_Y227] shows phosphorylation enrichment of 0.6 or higher.
Data returned: t

Data request: Could you verify whether the entry KKCTTYIDCDL [ASPA_Y64_R63T] shows phosphorylation enrichment of no less than 0.6?
Data returned: f

Data request: Tell me whether phosphorylation enrichment is at least 0.6 here: TTICKYITPME [GUCY2C_Y839_S840I]
Data returned: f

---

System: c-Src
EXPERIMENTAL PROTOCOL: phosphorylation enrichment, bacterial display (enrichment ratio); higher = better substrate or ligand; peptides without Tyr show the background
Threshold check on phosphorylation enrichment: at or above 1 gives YES, strictly below gives NO.

Data request: Given KDHPDYEYQPR [SOX9_Y172_K173E] , state whether its phosphorylation enrichment is at least 1.
Data returned: NO

Data request: Exam item: decide whether the reported phosphorylation enrichment for IYLGAYDRFLP [SLC22A5_Y486_V481I] is at least 1.
Data returned: YES

Data request: # check: phosphorylation enrichment of KDGIGYISAAE [CALM2_Y100_N98I] is greater than or equal to 1
Data returned: NO

Data request: Does the sequence KELALYDENWF [RPS19_Y48_P47L] have recorded phosphorylation enrichment that is 1 or more?
Data returned: YES

Data request: Item TVETKYDNISR [SETDB2_Y477] with phosphorylation enrichment of 1 or above?
Data returned: NO

Data request: Evaluate DLNATYCTIQG [U2SURP_Y634_R635C] : phosphorylation enrichment at minimum 1?
Data returned: YES

Data request: Would you say TYGVVYKARNK [CDK2_Y19] shows phosphorylation enrichment at minimum 1?
Data returned: YES

Data request: Does the reported phosphorylation enrichment for EVTLTYATGIK [NFKB1_Y485_T489I] fall at or above the 1 mark?
Data returned: NO

Data request: Does the sequence FDNPVYQKTTE [LDLR_Y828] have recorded phosphorylation enrichment that is 1 or more?
Data returned: NO

Data request: // inclusive: phosphorylation enrichment at least 1? input: HFPFQYHRQLF [F12_Y53_YF]
Data returned: NO

Data request: Is phosphorylation enrichment for SLGSPYEQPPR [PDLIM4_Y137_G138E] at or above 1?
Data returned: NO

Data request: Could you please find out whether PQEVTYAQLDH [KIR3DL2_Y398] has phosphorylation enrichment that meets 1 or exceeds it?
Data returned: YES

Data request: Would you say TEYIQYVRRKN [MAX_Y73_M74V] shows phosphorylation enrichment at minimum 1?
Data returned: NO

---

TESTED SYSTEM: Fyn (UniProt P06241)
Sequence (P06241 whole entry, looked up): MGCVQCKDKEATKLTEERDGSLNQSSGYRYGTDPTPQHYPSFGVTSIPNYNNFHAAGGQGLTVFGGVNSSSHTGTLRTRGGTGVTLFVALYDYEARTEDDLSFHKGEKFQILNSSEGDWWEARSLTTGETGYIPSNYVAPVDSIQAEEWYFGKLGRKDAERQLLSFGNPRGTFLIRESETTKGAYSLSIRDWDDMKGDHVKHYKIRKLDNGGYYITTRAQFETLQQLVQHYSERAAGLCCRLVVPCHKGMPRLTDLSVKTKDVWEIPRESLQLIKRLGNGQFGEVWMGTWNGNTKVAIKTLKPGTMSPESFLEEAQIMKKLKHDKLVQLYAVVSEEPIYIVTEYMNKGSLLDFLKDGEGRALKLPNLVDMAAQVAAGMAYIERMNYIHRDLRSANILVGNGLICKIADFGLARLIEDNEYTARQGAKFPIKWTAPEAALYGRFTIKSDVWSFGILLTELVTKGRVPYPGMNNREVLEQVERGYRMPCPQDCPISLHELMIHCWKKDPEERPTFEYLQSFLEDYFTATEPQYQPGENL
EXPERIMENTAL PROTOCOL: phosphorylation enrichment, bacterial display (enrichment ratio); higher = better substrate or ligand; peptides without Tyr show the background
Assign label 1 to entries whose phosphorylation enrichment meets or exceeds 0.5; assign label 0 to the rest.

Data request: Assess whether reported phosphorylation enrichment for EWQQTYTYDSG [JUP_Y20] sits at 0.5 or higher.
Data returned: label 1

Data request: Could you please find out whether EFNINYNNELP [THG1L_Y228] has phosphorylation enrichment that meets 0.5 or exceeds it?
Data returned: label 0

Data request: Reported phosphorylation enrichment at or above 0.5? GGKFSYLKVGH [GRM3_Y480_YF]
Data returned: label 0

Data request: Does the reported phosphorylation enrichment for ILKPDYQPLAI [HYDIN_Y1072] fall at or above the 0.5 mark?
Data returned: label 0

Data request: Hi team, for HYVYYYSYLLK [PTEN_Y178_R173H] , is the recorded phosphorylation enrichment at or above 0.5?
Data returned: label 1

Data request: Decide: is the reported value of phosphorylation enrichment for MHDSNSVSKGS [PDGFRA_Y849_Y849S] equal to or greater than 0.5?
Data returned: label 0

Data request: Quick check: does LKGQVYILGRE [ASS1_Y359] have phosphorylation enrichment greater than or equal to 0.5?
Data returned: label 1

Data request: Check this sequence for phosphorylation enrichment at or above 0.5: DFPIGYPSYLA [TBCK_Y153]
Data returned: label 0

Data request: Kindly determine if phosphorylation enrichment recorded for GSIQQYIYKQE [PRG4_Y1271] is above or exactly 0.5.
Data returned: label 1

Data request: In plain terms: is recorded phosphorylation enrichment at least 0.5 for NKKHHYRELPV [ERN2_Y860] ?
Data returned: label 1

Data request: Identify whether the reported phosphorylation enrichment of the following sequence is 0.5 or greater: YSPCDYQPCLA [TNS1_Y798_Y796C]
Data returned: label 1

Data request: Reported phosphorylation enrichment reaches at least 0.5 for SHEELYKWFTS [DYNC1H1_Y3051] ?
Data returned: label 1

---

TESTED SYSTEM: SHP2-C SH2
EXPERIMENTAL PROTOCOL: SH2 binding enrichment of the phosphorylated peptide, bacterial display (enrichment ratio); higher = better substrate or ligand; peptides without Tyr show the background
MEASURED PROPERTY: SH2 binding enrichment

Data request: Report SH2 binding enrichment under test system SHP2-C SH2 for DRPASYKKKSM [PDGFRA_Y768] .
Data returned: 0.962

Data request: Report value only: SH2 binding enrichment, SHP2-C SH2, SRIWVYNHFRW [BRCA2_Y2621_YF]
Data returned: 1.37

Data request: Fill in: SH2 binding enrichment on SHP2-C SH2, entry KWRGQYDVAIK [BTK_Y425]
Data returned: 0.935

Data request: Given HRGYLYLAIEY [TEK_Y899] , report its SH2 binding enrichment on SHP2-C SH2.
Data returned: 1.11

Data request: Please look at VFFFSYLLKNH [PTEN_Y180_YF] and tell me its recorded SH2 binding enrichment on SHP2-C SH2.
Data returned: 0.896

Data request: // output SH2 binding enrichment; input TFHNTYHSHMR [IL1RAPL1_Y615_Q618H] ; system SHP2-C SH2
Data returned: 1.51

Data request: Write down measured SH2 binding enrichment (SHP2-C SH2) for this sequence. VMTSKYRGGGG [HBA1_Y141_L137M]
Data returned: 0.792

Data request: Write down the reported SH2 binding enrichment (system: SHP2-C SH2) of EDGRLYAVKRS [PKMYT1_Y136]
Data returned: 0.833

Data request: Look up and report measured SH2 binding enrichment (SHP2-C SH2) for the following sequence: LLVVLNKYRCY [PSEN1_Y154_Y154N]
Data returned: 0.79

Data request: Find the measured SH2 binding enrichment of GRSTFYWPRPR [GAGE12J_Y10_YF] with SHP2-C SH2 as test system.
Data returned: 0.64

Data request: Quote SH2 binding enrichment with test system SHP2-C SH2 for QFLMMYVWSAS [ABCD1_Y337_K336M]
Data returned: 1.03

Data request: GET SH2 binding enrichment where system = SHP2-C SH2 and item = LSIDRYHAIVY [NPSR1_Y147]
Data returned: 1.03

Data request: With SHP2-C SH2 as the test system, provide measured SH2 binding enrichment for this sequence: AHAGEYGAEAL [HBA1_Y25]
Data returned: 0.676

Data request: Give SH2 binding enrichment for this entry on SHP2-C SH2: GHLYACDWISI [BEST1_Y227_Y227C]
Data returned: 0.676

Data request: Report SH2 binding enrichment from SHP2-C SH2 testing of GVRLFYRVMES [RB1_Y454_YF]
Data returned: 0.684

Data request: Output reported SH2 binding enrichment of the sequence FSAPNYCFRCG [PPP2CA_Y265_YF] on SHP2-C SH2.
Data returned: 0.702

Data request: Write down the reported SH2 binding enrichment (system: SHP2-C SH2) of LIGTPYWMAPE [PAK5_Y608_V604I]
Data returned: 3.03

Data request: Retrieve SH2 binding enrichment on SHP2-C SH2; query DEDYLCREELA [POR_Y575_Y575C]
Data returned: 0.917

Data request: // fetch SH2 binding enrichment for NVDGKYSFLKV [GRM3_Y478_G475D_YF] ; system: SHP2-C SH2
Data returned: 0.944

Data request: Given EERKTYVNTTL [TEK_Y1102] , report its SH2 binding enrichment on SHP2-C SH2.
Data returned: 0.571

Data request: GET SH2 binding enrichment where system = SHP2-C SH2 and item = CTTIHYNYMRN [TP53_Y234_C238R]
Data returned: 1.31

Data request: Under SHP2-C SH2: report SH2 binding enrichment of SSNLFYRCLTA [CNGA3_Y169_W171C_YF] .
Data returned: 0.518

Data request: Provide the reported SH2 binding enrichment (system: SHP2-C SH2) for LNFNEYFRDLN [HPRT1_Y198_D194N_YF]
Data returned: 0.955

Data request: Specify SH2 binding enrichment for LLINKYGLSAH [SCP2_Y151] , system SHP2-C SH2.
Data returned: 0.821

Data request: Please tell me the measured SH2 binding enrichment for ISGGGYRACPA [FGB_Y71_R74C] ; system: SHP2-C SH2.
Data returned: 0.715

Data request: Param request: SH2 binding enrichment | system SHP2-C SH2 | item HEEKVYLSRGD [CRACR2A_Y141];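 note: peptide library displayed on the E. coli surface as eCPX fusions, selected cells deep-sequenced, score is each peptide's frequency after selection divided by its frequency in the input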
Data returned: 0.495

Data request: Give SH2 binding enrichment for this entry on SHP2-C SH2: FMRGMYFRMTD [PLA2G6_Y541_K545T_YF]
Data returned: 1.43

Data request: Look up SHP2-C SH2 data: SH2 binding enrichment of HITQVYGFFDE [PPP2CA_Y127_Q122H_YF] , then report it.
Data returned: 1.12

Data request: Report value only: SH2 binding enrichment, SHP2-C SH2, VRFMAYTDEIF [F8_Y450_T454I]
Data returned: 0.72
